- procedure summary: SAD study: single-dose nacubactam pharmacokinetics (plasma/urine, LC-MS/MS, noncompartmental)
- Assay type: in vivo
- reported conditions: human, plasma, iv, 2000 mg, single i.v. dose 2,000 mg, n = 6, mean (SD)
assay readout: Cmax

Which value of Cmax has been reported for NCCONC(=O)[C@@H]1CC[C@@H]2CN1C(=O)N2OS(=O)(=O)O [Nacubactam] in the records?
112 µg/mL

* * *

- procedure summary: SAD study: single-dose nacubactam pharmacokinetics (plasma/urine, LC-MS/MS, noncompartmental)
- Format: in vivo
- reported conditions: human, plasma, iv, 2000 mg, single i.v. dose 2,000 mg, n = 6, mean (SD), read-out: CL (converted)
assay readout: clearance (mL/min)
Please give a number only; it is taken to be in mL/min.

What value of measured clearance is listed for NCCONC(=O)[C@@H]1CC[C@@H]2CN1C(=O)N2OS(=O)(=O)O [Nacubactam] ?
146

Ref: paper PMC7179653
